Entries and their Drug response score, conc. 1 values follow.
System: Circulating Tumour Cells (CTCs) from a patient with renal cancer
Assay: Drug response score assay on CTCs (with CD45+ cells for immunotherapy) from blood, Example 7
Assay type: cell-based, human
Design: key: normalized drug response metric per Gupta et al. 2020
Conditions: conc. 1: Pembr 20 μg/ml (CTCs + CD45+ cells); Docetax 0.02 μg/ml, Gemcit 2 μg/ml, Topo 5 μg/ml, Etop 1 μg/ml, Eribul 5 μg/ml (CTCs); t96h
Protocol: CD45^+ cells and circulating tumour cells (CTCs) were isolated from a blood sample provided by each subject. […] At the end of this culture period, dose response scores were calculated using a normalized drug response metric as described in Gupta et al. (Communications Biology volume 3, Article number: 42 (2020), https://doi.org/10.1038/s42003-020-0765-z). […] The positive control start readout for a given drug/concentration was the to readout for the corresponding drug at a specified concentration. […]
Answer with a number only.

COc1cc([C@@H]2c3cc4c(cc3[C@@H](O[C@@H]3O[C@@H]5CO[C@@H](C)O[C@H]5[C@H](O)[C@H]3O)[C@H]3COC(=O)[C@H]23)OCO4)cc(OC)c1O [Etoposide]
−0.2179

We next turn to a different molecule, shown below.
Reported Drug response score, conc. 1 for CC(=O)O[C@@]12CO[C@@H]1C[C@H](O)[C@@]1(C)C(=O)[C@H](O)C3=C(C)[C@@H](OC(=O)[C@H](O)[C@@H](NC(=O)OC(C)(C)C)c4ccccc4)C[C@@](O)([C@@H](OC(=O)c4ccccc4)[C@H]21)C3(C)C was 0.0585
